biological target: Glucose transporter (Leishmania mexicana) (UniProt O61059); experiment: ST_JUDE_LEISH: Cytotoxicity at 2uM final concentration against transgenic Leishmania Mexicana promastigotes LmGT2 that are glucose transport deficient and complemented with the L. Mexicana glucose transporter 2. Activity is measured by DNA content using SYBR green in vitro; assay type: functional
Rule: inhibition under 3% gives Condition not met, otherwise Condition met.

Consider the worked cases shown below.
Determine whether this compound has inhibition no lower than 3%: Cc1ccc(C2CCN(CCCCNC(=O)c3ccc(-c4ccc(C#N)cc4)cc3)CC2)c(O)c1
Condition met

Has CCN(CC)c1cc(C)c2cc(NC(=O)c3cc(=O)c4ccccc4o3)ccc2n1 a recorded inhibition greater than or equal to 3%?
Condition not met

// inclusive: inhibition at least 3%? input: CO/C(=C\C=C\c1cc2cc(Cl)c(Cl)cc2[nH]1)C(=O)NCCCCN1CCN(c2ccccc2OC)CC1
Condition not met

Others:
Please indicate if the recorded inhibition for COc1ccccc1Oc1c(N(C)S(=O)(=O)c2ccc(C(C)C)cc2)nc(C(F)(F)F)nc1N(C)S(=O)(=O)c1ccc(C(C)C)cc1 meets or exceeds 3%.
Condition not met
